# assayProtocol: NCI Yeast Anticancer Drug Screen. Data for the wt1 strain (AID 149);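 further: 0% = growth of vehicle-treated wt1 cultures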
# setupConditions: S. cerevisiae wt1 strain (SPY 50644) growth inhibition; at 1.2 µM; stronger effect = higher value
Compounds without any hit were thinned out: in the full panel of roughly 79,000, 15% have a hit.
valueKind: growth inhibition (%)
Please state the figure in %; there is no need to write the unit.

Sample records with growth inhibition:
molecule	valueKind	unitDescriptor	testResult
Cc1ccc2c3ccc4c(c3n(C)c2c1)C(=O)C=CC4=O	growth inhibition	%	-22
O=C1CC(=O)c2ccccc21	growth inhibition	%	0
COC(=O)CC1CCc2c(ccc3ccccc23)C1(C)C(=O)OC (stereo unspecified)	growth inhibition	%	-2

Query: Entry Oc1ccc(-c2nc(-c3ccc(F)cc3)c(-c3ccc4ccccc4n3)[nH]2)cc1 has what growth inhibition?
Response: -60

Query: // next record Cc1ccc(NC(c2ccccc2)c2ccc3cccnc3c2O)cc1 (stereo unspecified)
Response: 1

Query: // next record CN(C)CCNc1ccc2ncnc3c2c1C(=O)c1ccccc1-3
Response: 7

====

# assayProtocol: NCI Yeast Anticancer Drug Screen. Data for the bub3 strain (AID 167)
# setupConditions: S. cerevisiae bub3 mutant strain, at 33.0 µM, stronger effect = higher value
The panel holds about 79,000 compounds, 15% with a hit somewhere; the sample as a whole holds those more often.
valueKind: growth inhibition (%)
Please state the figure in %; there is no need to write the unit.

Sample records with growth inhibition:
compound	unitDescriptor	growth inhibition
Cc1sc2ccc3ccccc3c2[n+]1C	%	14
Cc1cc(O)c(C(C)C)cc1C1(c2cc(C(C)C)c(O)cc2C)OC(=O)c2ccccc21	%	16
Cc1ccc(Sc2ccccc2N)cc1	%	24
CCOC(=O)CC1(C(=O)OCC)c2[nH]c3ccccc3c2CCN1Cc1ccccc1 (stereo not given)	%	26
CC(=O)OC1CC2C(C)(C)C(=O)C=C[C@]2(C)C2CCC3(C)C(=CCC3[C@H](CO)C[C@H](O)C(=O)C(C)(C)O)[C@]12C (stereo not given in full)	%	-29

Query: Entry O=c1nc2n(Cc3ccccc3)c3ccccc3nc-2c(=O)[nH]1 has what growth inhibition?
Response: -6

====

# assayProtocol: NCI Yeast Anticancer Drug Screen. Data for the mgt1 strain (AID 153)
# setupConditions: S. cerevisiae mgt1 mutant growth inhibition; at 3.7 µM; stronger effect = higher value
About 79,000 compounds went through this panel and 15% of them were active in at least one assay; those are over-represented in the sample as a whole.
Quick reference for growth inhibition among some compounds
Please state the figure in %; there is no need to write the unit.

compound	unitDescriptor	growth inhibition
O=C(O)c1cc2ccccc2c2c1C(=O)c1ccccc1-2	%	20
Cc1c(C(C)C)cc(OCCO)cc1C(C)C	%	-11
Oc1ccc(O)c(Cc2ccccc2)c1	%	13
CC(C)C(C)/C=C\C(C)C1CCC2C3=CC=C4CC(O)CCC4(C)C3CCC21C (configuration not stated)	%	3
CCCCc1nnc(NS(=O)(=O)c2ccc(C)cc2)s1	%	-28
O=C1c2ccccc2C(=O)N1CCCC(=O)n1cc(F)c(=O)[nH]c1=O	%	23
OC(CCNCc1ccccc1)c1ccc2ccccc2c1 (configuration not stated)	%	34
CN(C)CCOC1(Cc2ccc(F)cc2)CCC(C(C)(C)C)CC1 (configuration not stated)	%	8

Query: Entry COC(=O)C1(C)CCc2c(ccc3ccccc23)C1=O (configuration not stated) has what growth inhibition?
Response: 0

Query: // next record C/C=C/SC(=Nc1ccccc1)Nc1ccccc1
Response: -8

Query: // next record Cc1nc(-c2cc3cc([N+](=O)[O-])ccc3oc2=O)cs1
Response: 6

Query: // next record Cc1ccccc1N=Cc1cc(Cl)ccc1O
Response: -4
